- test target: T1, cynomolgus monkey IL4Rα-his protein (cynomolgus monkey, UniProt A0A2K5V580 33-239)
- T1 construct: Bought protein; also called Cynomolgus IL4Rα; Cyno-IL4Rα-his; not shown: his tag
- test summary: indirect ELISA, coated cyno IL4Rα-his
metric name: EC50
Report as: number unit

**Q:** Requested read-out: EC50. Entry: huC2C1A1A1-V15 (antibody, human IgG4, V domains shown, Humanized, human IgG4/kappa) VH: EVQLVESGGGLVQPGGSLRLSCAASGFTFSTYGMSWVRQAPGKGLVWVATINSNGGSTSYPDSVKGRFTISRDNAKNTLYLQMNSLRAEDTAVYYCARFFRFRNAMDYWGQGTLVTVSS VL: DIQMTQSPSSLSASVGDRVTITCRTSENIYSYLAWYQQKPGKAPKFLVYNAKTLAEGVPSRFSGSGSGTDFTLTISSLQPEDFATYYCQHYYGPPTWTFGQGTKVEIKR
**A:** 0.52 nM

**Q:** Requested read-out: EC50. Entry: huB8G11F2B7G5E8-V14 (antibody, human IgG4 S228P, kappa, V domains shown, Humanized, human IgG4/kappa; also called huBSG11F2B7G5E8-V14) VH: EVQLVQSGAEVKKPGATVKISCKVSGFNIKDTYMHWVKQAPGKGLEWMGRIDPTNGYTIYASKFQGKATITADTSSNTAYMELSSLRSEDTAVYHCVSRRPWFAYWGQGTLVTVSS VL: DIVMTQTPLSLSVTPGQPASISCRSSQSIVHSNGNTYLEWYLQKPGQSPQLLIYKVTNRFSGVPDRFSGSGSGTDFTLKISRVEAEDVGVYYCFQGSHVPYTFGQGTKLEIKR
**A:** 137 nM

**Q:** Requested read-out: EC50. Entry: chimeric antibody C2C1A1A1 (antibody, human IgG4 S228P, kappa, V domains shown, Mouse variable domains on human IgG4/kappa; also called Chimeric C2C1A1A1; chC2C1A1A1) VH: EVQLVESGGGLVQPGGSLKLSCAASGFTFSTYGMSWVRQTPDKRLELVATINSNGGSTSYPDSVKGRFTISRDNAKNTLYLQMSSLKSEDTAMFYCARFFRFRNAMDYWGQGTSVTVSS VL: DIQMTQSPASLSASVGETVTITCRTSENIYSYLAWYQQKQGKSPQFLVYNAKTLAEGVPSRFSGSGSGTQFSLNINSLQSEDFGSYYCQHYYGPPTWTFGGGTKLEIKR
**A:** 0.6 nM
